# Test system: Rattus norvegicus
# EXPERIMENTAL_DETAILS: Antidiabetic activity in streptozotocin-induced NIDDM Wistar albino rat model assessed as inhibition of rise of blood glucose level at 20 mg/kg, po administered 15 mins prior to glucose challenge measured after 90 mins of glucose loading by glucose oxidase-peroxidase colorimetric method
# Format: functional
PARAMETER_MEASURED: inhibition in vivo at 20 mg/kg

The following molecules have reported results that may help.
{"MOLECULE": "CCCNC(=O)NS(=O)(=O)c1ccc(-n2nc(-c3ccc(C)cc3)ccc2=O)cc1", "TEST_SYSTEM": "Rattus norvegicus", "PARAMETER_MEASURED": "inhibition in vivo at 20 mg/kg", "READING": "109%"}
{"MOLECULE": "O=C(NCc1ccccc1)NS(=O)(=O)c1ccc(-n2nc(-c3ccc(Cl)cc3)ccc2=O)cc1", "TEST_SYSTEM": "Rattus norvegicus", "PARAMETER_MEASURED": "inhibition in vivo at 20 mg/kg", "READING": "111%"}
{"MOLECULE": "O=C(NC1CCCCC1)NS(=O)(=O)c1ccc(-n2nc(-c3ccccc3)ccc2=O)cc1", "TEST_SYSTEM": "Rattus norvegicus", "PARAMETER_MEASURED": "inhibition in vivo at 20 mg/kg", "READING": "86.2%"}
{"MOLECULE": "CCCCNC(=O)NS(=O)(=O)c1ccc(-n2nc(-c3ccc(OC)cc3)ccc2=O)cc1", "TEST_SYSTEM": "Rattus norvegicus", "PARAMETER_MEASURED": "inhibition in vivo at 20 mg/kg", "READING": "25.6%"}

Then this molecule:
Asked: Look up inhibition in vivo at 20 mg/kg for this molecule: Cc1ccc(S(=O)(=O)NC(=O)NN2CC3CCCC3C2)cc1 (stereo not given) [GLICLAZIDE]
Given back: 107%

These measurements were taken from ChEMBL document CHEMBL1158383.
